Below, each of the binders is paired with its reported Kd value.
# target.of.assay: T1, human Tim-3 expressed on the cell surface (human, UniProt Q8TDQ0 22-301)
# T1 construct: also called hTim-3; Human Tim-3 (CHO)
# assay: flow cytometry, activated human CD4+ T cells

>  <binder>
h22E11-VK1-39 × h22E11-VH5-51 (antibody, V domains shown, Humanized m22E11) VH: EVQLVQSGAEVKKPGESLKISCKVSGFSLTSYGVHWVRQMPGKGLEWLVVIWSDGSTTYNPSFQGQVTISKDKSISTVYLQWSSLKASDTAMYYCARQGGYRYDDAMDYWGQGTLVTVSS VL: DIQLTQSPSSLSASVGDRVTITCKASQSVDYDGNSYVNWYQQKPGKAPKLLIYAASNLESGVPSRFSGSGSGTDFTLTISSLQPEDFATYYCQQSNEDPYTFGQGTKVEIK

>  <unit.name>
nM

>  <Kd>
0.9

$$$$
>  <binder>
h22E11-VK4-1 × h22E11-VH4-30-4 (antibody, V domains shown, Humanized m22E11) VH: QVQLQESGPGLVKPSQTLSLTCTVSGFSLTSYGVHWIRQPPGKGLEWLVVIWSDGSTTYNPSLKSRVTISKDTSKNQVSLKLSSVTAADTAVYYCARQGGYRYDDAMDYWGQGTLVTVSS VL: DIVLTQSPDSLAVSLGERATINCKASQSVDYDGNSYVNWYQQKPGQPPKLLIYAASNLESGVPDRFSGSGSGTDFTLTISSLQAEDVAVYYCQQSNEDPYTFGQGTKVEIK

>  <unit.name>
nM

>  <Kd>
5.7

$$$$
>  <binder>
h22E11-VK4-1 × h22E11-VH5-51 (antibody, V domains shown, Humanized m22E11) VH: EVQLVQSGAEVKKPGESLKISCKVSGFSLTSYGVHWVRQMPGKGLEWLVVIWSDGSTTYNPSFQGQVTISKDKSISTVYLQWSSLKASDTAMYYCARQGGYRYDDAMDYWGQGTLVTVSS VL: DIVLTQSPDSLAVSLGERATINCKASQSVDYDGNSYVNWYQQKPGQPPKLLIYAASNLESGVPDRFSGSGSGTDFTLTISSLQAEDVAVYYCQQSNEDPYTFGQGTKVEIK

>  <unit.name>
nM

>  <Kd>
0.6

$$$$
